- assay-target: UniProtKB Q96EB6
- Sequence (Q96EB6 1-747): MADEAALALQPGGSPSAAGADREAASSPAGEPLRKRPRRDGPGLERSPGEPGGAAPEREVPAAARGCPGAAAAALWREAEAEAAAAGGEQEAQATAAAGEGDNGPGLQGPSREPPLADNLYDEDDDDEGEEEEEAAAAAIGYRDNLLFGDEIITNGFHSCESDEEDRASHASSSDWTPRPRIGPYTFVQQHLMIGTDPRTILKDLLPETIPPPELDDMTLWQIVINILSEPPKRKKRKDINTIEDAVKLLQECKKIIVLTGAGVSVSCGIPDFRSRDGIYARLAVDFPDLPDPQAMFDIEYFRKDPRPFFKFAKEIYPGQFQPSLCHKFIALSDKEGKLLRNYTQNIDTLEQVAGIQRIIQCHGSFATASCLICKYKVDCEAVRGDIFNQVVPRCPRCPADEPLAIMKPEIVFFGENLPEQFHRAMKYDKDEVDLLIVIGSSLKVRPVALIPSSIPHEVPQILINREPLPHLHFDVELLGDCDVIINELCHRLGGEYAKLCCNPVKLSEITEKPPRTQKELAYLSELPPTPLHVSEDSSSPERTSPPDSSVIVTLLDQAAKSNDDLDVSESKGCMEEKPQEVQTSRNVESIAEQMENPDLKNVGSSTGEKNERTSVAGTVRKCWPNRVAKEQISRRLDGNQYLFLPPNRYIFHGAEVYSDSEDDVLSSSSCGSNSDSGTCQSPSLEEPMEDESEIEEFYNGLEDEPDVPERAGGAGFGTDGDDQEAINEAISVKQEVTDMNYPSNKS
- experiment-notes: Mass spectrometry based SIRT1 deacetylase activation assay (acetylated p53-derived peptide substrate)
- Format: biochemical
- test-context: 0.5 μM peptide substrate, 120 μM βNAD+, 10 nM SIRT1, 25 min at 25° C., read-out: EC1.5
molecules and their reported EC1.5
measure: EC1.5

INSERT INTO measurements (molecule, assay_target, measure, assay_value) VALUES
  ('O=C(Nc1cccnn1)c1cccc2[nH]c(-c3cccc(N4CCOCC4)c3)nc12 [Compound 470]', 'UniProtKB Q96EB6', 'EC1.5', '1000 to 25000 nM'),
  ('Cc1cc(Cl)cc(-c2nc3c(C(=O)Nc4ccccn4)cccc3[nH]2)c1OCCN1CCOCC1 [Compound 506]', 'UniProtKB Q96EB6', 'EC1.5', '1000 to 25000 nM'),
  ('Cc1cnc(NC(=O)c2cccc3[nH]c(-c4ccc(N5CCOCC5)cc4C(F)F)nc23)s1 [Compound 552]', 'UniProtKB Q96EB6', 'EC1.5', '< 1000 nM'),
  ('O=C(Nc1nccs1)c1cccc2[nH]c(-c3cccc(OC4CCNCC4)c3)nc12 [Compound 426]', 'UniProtKB Q96EB6', 'EC1.5', '< 1000 nM'),
  ('O=C(Nc1nccs1)c1cccc2[nH]c(-c3ccc(Cl)cc3C(F)F)nc12 [Compound 562]', 'UniProtKB Q96EB6', 'EC1.5', '< 1000 nM'),
  ('Cc1cc(NC(=O)c2cccc3[nH]c(-c4ccc(F)cc4C(F)(F)F)nc23)no1 [Compound 464]', 'UniProtKB Q96EB6', 'EC1.5', '< 1000 nM'),
  ('O=C(Nc1nccs1)c1cccc2[nH]c(-c3ccc(N4CCOCC4)cc3C(F)(F)F)nc12 [Compound 414]', 'UniProtKB Q96EB6', 'EC1.5', '< 1000 nM'),
  ('CS(=O)(=O)c1cccc(-c2nc3c(C(=O)Nc4cccnc4)cccc3[nH]2)c1 [Compound 404]', 'UniProtKB Q96EB6', 'EC1.5', '< 1000 nM'),
  ('CS(=O)(=O)c1ccc(-c2nc3c(C(=O)Nc4nccs4)cccc3[nH]2)cc1 [Compound 405]', 'UniProtKB Q96EB6', 'EC1.5', '1000 to 25000 nM'),
  ('O=C(Nc1cccnc1)c1cccc2[nH]c(-c3cccc(OC4CCNCC4)c3)nc12 [Compound 567]', 'UniProtKB Q96EB6', 'EC1.5', '< 1000 nM'),
  ('CCCN1CCCc2ccc(-c3nc4c(C(=O)Nc5nccs5)cccc4[nH]3)cc21 [Compound 425]', 'UniProtKB Q96EB6', 'EC1.5', '1000 to 25000 nM'),
  ('O=C(Nc1nccs1)c1cccc2[nH]c(-c3cccc4c3OC(F)(F)O4)nc12 [Compound 427]', 'UniProtKB Q96EB6', 'EC1.5', '< 1000 nM'),
  ('O=C(Nc1cccc(OC2CCNCC2)c1)c1cccc2[nH]c(-c3ccccc3C(F)(F)F)nc12 [Compound 597]', 'UniProtKB Q96EB6', 'EC1.5', '< 1000 nM'),
  ('CC1(C)Cc2cccc(-c3nc4c(C(=O)Nc5cccnc5)cccc4[nH]3)c2O1 [Compound 401]', 'UniProtKB Q96EB6', 'EC1.5', '1000 to 25000 nM'),
  ('O=C(Nc1ccccn1)c1cccc2[nH]c(-c3ccc(Cl)cc3C(F)F)nc12 [Compound 564]', 'UniProtKB Q96EB6', 'EC1.5', '1000 to 25000 nM'),
  ('O=C(Nc1cccc(OCC(O)CO)c1)c1cccc2[nH]c(-c3ccccc3C(F)(F)F)nc12 (centres unmarked) [Compound 478]', 'UniProtKB Q96EB6', 'EC1.5', '< 1000 nM'),
  ('O=C(NC1CCNCC1)c1cccc2[nH]c(-c3cc(F)ccc3C(F)(F)F)nc12 [Compound 438]', 'UniProtKB Q96EB6', 'EC1.5', '> 25000 nM'),
  ('O=C(NC1CCOCC1)c1cccc2[nH]c(-c3ccc(Cl)cc3C(F)(F)F)nc12 [Compound 434]', 'UniProtKB Q96EB6', 'EC1.5', '1000 to 25000 nM'),
  ('O=C(Nc1cccnc1)c1cccc2[nH]c(-c3ccc(N4CCOCC4)cc3C(F)F)nc12 [Compound 554]', 'UniProtKB Q96EB6', 'EC1.5', '< 1000 nM'),
  ('CC(C)(C)c1ccc(OCCN2CCOCC2)c(-c2nc3c(C(=O)Nc4ccccn4)cccc3[nH]2)c1 [Compound 548]', 'UniProtKB Q96EB6', 'EC1.5', '< 1000 nM'),
  ('O=C(Nc1cccnc1)c1cccc2[nH]c(-c3ccc(N4CCCC4)cc3C(F)(F)F)nc12 [Compound 573]', 'UniProtKB Q96EB6', 'EC1.5', '< 1000 nM'),
  ('O=C(NC1CCNCC1)c1cccc2[nH]c(-c3ccc(F)cc3C(F)(F)F)nc12 [Compound 454]', 'UniProtKB Q96EB6', 'EC1.5', '> 25000 nM'),
  ('Cc1nc(N2CCOCC2)sc1-c1nc2c(C(=O)Nc3ccccn3)cccc2[nH]1 [Compound 412]', 'UniProtKB Q96EB6', 'EC1.5', '< 1000 nM'),
  ('O=C(Nc1ccccn1)c1cccc2[nH]c(-c3ccccc3OCCN3CC[C@@H](F)C3)nc12 [Compound 508]', 'UniProtKB Q96EB6', 'EC1.5', '1000 to 25000 nM'),
  ('CCCN1CCc2cc(-c3nc4c(C(=O)Nc5ncc(C)s5)cccc4[nH]3)ccc21 [Compound 570]', 'UniProtKB Q96EB6', 'EC1.5', '1000 to 25000 nM'),
  ('CC1(C)Cc2cc(-c3nc4c(C(=O)Nc5ccccn5)cccc4[nH]3)ccc2O1 [Compound 498]', 'UniProtKB Q96EB6', 'EC1.5', '1000 to 25000 nM'),
  ('CC(C)N1CCN(c2cccc(-c3nc4c(C(=O)Nc5ccccn5)cccc4[nH]3)c2)CC1 [Compound 530]', 'UniProtKB Q96EB6', 'EC1.5', '< 1000 nM'),
  ('O=C(Nc1cccc2[nH]c(-c3ccc(Cl)cc3C(F)(F)F)nc12)c1ccccn1 [Compound 417]', 'UniProtKB Q96EB6', 'EC1.5', '1000 to 25000 nM'),
  ('CS(=O)(=O)c1cccc(-c2nc3c(C(=O)Nc4nccs4)cccc3[nH]2)c1 [Compound 402]', 'UniProtKB Q96EB6', 'EC1.5', '< 1000 nM'),
  ('Cc1cnc(NC(=O)c2cccc3[nH]c(-c4cnc5c(c4)OCCN5C)nc23)s1 [Compound 440]', 'UniProtKB Q96EB6', 'EC1.5', '< 1000 nM'),
  ('O=C(Nc1cccnc1)c1cccc2[nH]c(-c3ccc(N4CC[C@@H](F)C4)cc3C(F)(F)F)nc12 [Compound 575]', 'UniProtKB Q96EB6', 'EC1.5', '< 1000 nM'),
  ('O=C(Nc1cccc2[nH]c(-c3ccc(Cl)cc3C(F)(F)F)nc12)c1cnccn1 [Compound 419]', 'UniProtKB Q96EB6', 'EC1.5', '1000 to 25000 nM');
